Tested on: DU-145 prostate
Test: NCI-60 one-dose screen, 48 h (100 = growth as untreated, 0 = no growth, -100 = all killed)
Conditions: 10 µM unless noted
The panel holds about 83,000 compounds, 20% with a hit somewhere; the sample as a whole holds those more often.
Provide the reported growth of each item.
One number for each entry, in %.

- COc1ccc(/C=c2\nc3n(-c4ccccc4)c4nc5c6c(sc5c(=N)n4n-3c2=O)CCCC6)cc1: 104

Record growth for all entries; do not skip any.
1. Clc1cccc(Cl)c1/C=C/c1cc(/C=C/c2c(Cl)cccc2Cl)[nH]n1
2. CN1C(=O)N(C)C2C1NN=c1s/c(=C\c3ccccc3)c(=O)n12 (configuration not stated)

OUT:
[17, 55]

Working through the 3 compounds below one at a time, give growth for each.
1. O=C1/C(=C/c2ccc(F)cc2)C=C(c2ccccc2)N1CCc1ccccc1
2. CCCCC1CCCCN1C(=O)OCC (configuration not stated)
3. Cc1ccc(NS(=O)(=O)c2ccc3c(c2)C(=O)CC(c2ccc(C(=O)C(C)C)cc2)N3)cc1C (configuration not stated)

OUT:
1. 81.6
2. 108
3. 83.5

Parameters: items (list). Returns: growth for each item.
1. O=C(Nc1ccccc1)Nc1cccc(Oc2nnc(Cl)c3ccccc23)c1
2. COc1ccc(-c2nc(SCCC(C)C)nc(N/N=C\c3cccc(Cl)c3)c2C#N)cc1
3. O=C(O)C1CCC(=O)N1C(=O)OCc1ccccc1 (configuration not stated)
4. CCOC(=O)c1c(-c2ccc(Cl)cc2)c(C#N)c(=O)n(-c2ccccc2CC)c1N
5. Cn1c(-c2c(N)n(Cc3ccc(C(F)(F)F)cc3)c3nc(C#N)c(C#N)nc23)nc2ccccc21
6. COC(=O)c1c2c(c(C)[n+]([O-])c1C)C(=O)C(NCc1ccc(F)cc1)=CC2=O
7. CN1CCN(CCCOc2ccc3nc(Nc4ccc(F)c(F)c4)ccc3c2)CC1
8. CCCCCCCCCCCC(c1ccccc1)[N+](C)(C)C (configuration not stated)

OUT:
[39, 85.4, 117, 93.5, -4.79, 42.5, 39.9, 39.8]
